test system: S. aureus Met-R multiresistant strains; assay: MIC determination (NCCLS broth microdilution), methicillin-resistant multiresistant S. aureus strains; assay type: cell-based, Staphylococcus aureus; settings: Staphylococcus aureus, Strain 42; antibiotype Oxa, Cip, Clin, Ery, Gm; read-out: MIC
measured quantity: MIC (µg/mL)
Only the number, expressed in µg/mL, is required.

[[record]]
chemical_string = "O=C(N[C@H](CO)[C@H](O)c1ccc([N+](=O)[O-])cc1)C(Cl)Cl"
tested_system = "S. aureus Met-R multiresistant strains"
measured_quantity = "MIC"
readout_value = 8


Attention now shifts to the item below.
(Q) Look at this molecule and give its reported MIC. CS(=O)(=O)c1ccc([C@@H](O)[C@@H](CO)NC(=O)C(Cl)Cl)cc1
(A) 8
